The origin of these recorded values is ChEMBL document CHEMBL4808188.

Catalogue of half-life readings, one per entry.
# assay_summary: Metabolic stability in mouse liver microsomes assessed as half life measured upto 120 mins
# Type: ADME, Microsome
Kindly provide the numeric value in min only, without the unit symbol.

1) [2H]C([2H])([2H])c1nnn(C)c1-c1cnc2c3ccc(C(C)(C)O)c(F)c3n([C@H](c3cc(C)on3)C3CCOCC3)c2c1	30

-- ask Suppose we examine the compound [2H]C([2H])([2H])c1nnn(C)c1-c1cnc2c3ccc(C(C)(C)O)cc3n([C@H](c3cc(C)on3)C3CCOCC3)c2c1 ; what half-life value has been reported?
-- reply 30

-- ask Please do the same for [2H]C([2H])([2H])c1nnn(C)c1-c1cnc2c3ccc(C(C)(C)O)cc3n([C@H](c3ncccc3F)C3CCOCC3)c2c1 as well.
-- reply 24

-- ask Please do the same for [2H]C([2H])([2H])c1nnn(C)c1-c1cnc2c3cc(F)c(C(C)(C)O)cc3n([C@H](c3cc(C)on3)C3CCOCC3)c2c1 as well.
-- reply 26

-- ask Please do the same for [2H]C([2H])([2H])c1nnn(C)c1-c1cnc2c3cc(F)c(C(C)(C)O)cc3n([C@H](c3ccccc3)C3CCOCC3)c2c1 as well.
-- reply 41

-- ask Please do the same for Cc1cc([C@H](C2CCOCC2)n2c3cc(C(C)(C)O)ccc3c3ncc(-c4c(C)nnn4C)cc32)n(C)n1 as well.
-- reply 50

-- ask Please do the same for [2H]C([2H])([2H])c1nnn(C)c1-c1cnc2c3ccc(C(C)(C)O)c(F)c3n([C@H](c3ncccc3F)C3CCOCC3)c2c1 as well.
-- reply 16

-- ask Please do the same for [2H]C([2H])([2H])c1nnn(C)c1-c1cnc2c3c(F)cc(C(C)(C)O)cc3n([C@H](c3cc(C)on3)C3CCOCC3)c2c1 as well.
-- reply 17

-- ask Please do the same for [2H]C([2H])([2H])c1nnn(C)c1-c1cnc2c3ccc(C(C)(C)O)cc3n([C@H](c3ccc(Cl)cn3)C3CCOCC3)c2c1 as well.
-- reply 35

-- ask Please do the same for Cc1cc([C@H](C2CCOCC2)n2c3cc(C(C)(C)O)ccc3c3ncc(-c4c(C)nnn4C)cc32)no1 as well.
-- reply 10

====

# assay_summary: Permeability of the compound at pH 7.4 by PAMPA
# Assay type: ADME
# test_context: read-out: permeability
The class of a record is decided solely by its measured Papp; consult bucket A (below 30 ×10⁻⁶ cm/s), bucket B (30 ×10⁻⁶ cm/s to below 60 ×10⁻⁶ cm/s), bucket C (60 ×10⁻⁶ cm/s or more)

Please review the entries below; each comes with its answer.
1) [2H]C([2H])([2H])c1nnn(C)c1-c1cnc2c3ccc(C(C)(C)O)cc3n([C@H](c3ncccc3F)C3CCOCC3)c2c1	bucket A
2) Cc1cc([C@H](C2CCOCC2)n2c3cc(C(C)(C)O)ccc3c3ncc(-c4c(C)nnn4C)cc32)n(C)n1	bucket A
3) Cc1cc([C@H](C2CCOCC2)n2c3cc(C(C)(C)O)ccc3c3ncc(-c4c(C)nnn4C)cc32)no1	bucket B
4) [2H]C([2H])([2H])c1nnn(C)c1-c1cnc2c3ccc(C(C)(C)O)c(F)c3n([C@H](c3ncccc3F)C3CCOCC3)c2c1	bucket B
5) [2H]C([2H])([2H])c1nnn(C)c1-c1cnc2c3ccc(C(C)(C)O)cc3n([C@H](c3cc(C)on3)C3CCOCC3)c2c1	bucket A

Turning to the following compound.
-- ask Categorize the following entry: [2H]C([2H])([2H])c1nnn(C)c1-c1cnc2c3cc(F)c(C(C)(C)O)cc3n([C@H](c3ccccc3)C3CCOCC3)c2c1
-- reply bucket C
